Biological target: Lp-PLA2 (Homo sapiens, UniProt Q13093)
Construct: Individual serum No. 16, individual serum No. 78; from tissue; host or cells: serum and plasma (individual sera, pooled sera, heparin and citrated pooled plasma)
Sequence (Q13093 22-441): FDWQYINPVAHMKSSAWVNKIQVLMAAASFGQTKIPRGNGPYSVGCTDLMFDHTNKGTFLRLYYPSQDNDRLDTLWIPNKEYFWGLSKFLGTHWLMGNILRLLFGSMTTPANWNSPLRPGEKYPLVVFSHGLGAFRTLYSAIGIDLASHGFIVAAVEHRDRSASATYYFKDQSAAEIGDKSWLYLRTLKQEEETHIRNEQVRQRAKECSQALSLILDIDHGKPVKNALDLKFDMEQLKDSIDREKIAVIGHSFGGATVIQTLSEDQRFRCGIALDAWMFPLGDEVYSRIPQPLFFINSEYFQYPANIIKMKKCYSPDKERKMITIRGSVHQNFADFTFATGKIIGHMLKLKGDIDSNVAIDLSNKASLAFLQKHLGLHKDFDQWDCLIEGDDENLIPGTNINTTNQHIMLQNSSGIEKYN
Assay: Lp-PLA2 activity measurement in serum/plasma with reagents of the invention (PAF substrate, lyso-PAF-PLD, choline oxidase, peroxidase colorimetry)
Assay type: biochemical
Settings: Example 4; 50 mM buffer pH 7.5 in R1 and R2; sample Individual serum 78
property: absorbance change per minute (sensitivity)

O=S(=O)(O)CCN1CCN(CCS(=O)(=O)O)CC1	18.4 ΔmAbs/min
O=S(=O)(O)CCN1CCN(CCO)CC1	15.6 ΔmAbs/min
O=S(=O)(O)CCCN1CCOCC1	16.8 ΔmAbs/min
O=S(=O)(O)CCNC(CO)(CO)CO	16.0 ΔmAbs/min
O=P(O)(O)O [Pi-K, potassium phosphate]	16.0 ΔmAbs/min
NC(CO)(CO)CO [Tris, 2-Amino-2-hydroxymethyl-1,3-propanediol]	19.1 ΔmAbs/min

Source of measurements: patent US10900063B2
